TARGET_OR_SYSTEM: Caspase-3 (Homo sapiens, UniProt P42574);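 further: Dose-response selectivity test against caspase-3 for candidate inhibitors of sentrin-specific proteases (SENPs)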
Sequence (P42574 29-175 limits assumed): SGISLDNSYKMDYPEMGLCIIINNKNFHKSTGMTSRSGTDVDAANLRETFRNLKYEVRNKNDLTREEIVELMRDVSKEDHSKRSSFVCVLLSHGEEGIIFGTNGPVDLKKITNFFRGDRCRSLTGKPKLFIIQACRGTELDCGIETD
Sequence (P42574 176-277 limits assumed): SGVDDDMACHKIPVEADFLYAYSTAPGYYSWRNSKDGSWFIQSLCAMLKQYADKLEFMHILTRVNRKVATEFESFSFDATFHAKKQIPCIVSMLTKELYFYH
Format: functional
The source made the active and inactive calls.
Attribute: IC50

Cc1cc(C(=O)Nc2ccc(N3CCCC3)c(Cl)c2)ccc1[N+](=O)[O-] 28.2 µM (active)
COc1ccc(C(=N)NOC(=O)C2CCCCC2)cc1 28.4 µM (active)
O=C(COC(=O)c1ccc([N+](=O)[O-])s1)NNC(=O)c1ccccc1 6.74 µM (active)

In: Give a short answer stating reported IC50 for `C#CCN1C(=O)S/C(=C\c2ccc(-c3ccc(Cl)c(C(=O)O)c3)o2)C1=O` .
Out: 29.6 µM (active)

In: For the compound `COc1cccc(-c2nc(=S)c3c(o2)CCCC3)c1` , give its measured IC50 value.
Out: 24.9 µM (active)

In: Specify reported IC50 for the compound shown: `CC(C)=CCC1=C(OCC(=O)O)C(=O)c2ccccc2C1=O`
Out: 15 µM (active)
